Documented pIC50 across a set of binders
- Tgt: Interleukin-8 (IL8, CXCL8), C-terminal His-tagged (Homo sapiens, UniProt P10145 SEQ:1-72)
- Sequence (P10145 28-99): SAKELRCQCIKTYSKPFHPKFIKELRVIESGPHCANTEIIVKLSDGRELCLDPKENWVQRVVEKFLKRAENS
- Protocol Description: cell_activity; neutrophil migration, 3 nM IL8, protein limited
- Conditions: tags: C-terminal His (Sino Biological); stem-loop
// pIC50: -log10(molar conc.)

UGAUGACGGUAGAUUUCGGGUAGUGUGACCGCAUCU (ssRNA, 2'-F G; 2'-OMe A,C,U; 5' C6NH2; 3' idT) [Aptamer 94]: 8.52

Please examine the following record next.
// query Quick one: pIC50 of GGCGACGGUAGAUUUCGGGUAGUGUGACCGCGCC (ssRNA, 2'-F G; 2'-OMe A,C,U; 5' C6NH2; 3' idT) [Aptamer 143] ?
// result 8.70
